assayedTarget: GlcNAc(a1-4)Gal(b1-4)GlcNAc(b1-3)Gal(b1-4)GlcNAc(b1-3)Gal(b1-4)GlcNAc
assayText: glycan array binding signal (z-score within array); higher = stronger binding
testContext: glycan notation: IUPAC condensed, linker removed
The full list was thinned out, with the strongest signals kept by preference.
measureName: glycan array binding signal (z-score)
In your answer, state the number alone without any accompanying words.

Item OGAN (protein) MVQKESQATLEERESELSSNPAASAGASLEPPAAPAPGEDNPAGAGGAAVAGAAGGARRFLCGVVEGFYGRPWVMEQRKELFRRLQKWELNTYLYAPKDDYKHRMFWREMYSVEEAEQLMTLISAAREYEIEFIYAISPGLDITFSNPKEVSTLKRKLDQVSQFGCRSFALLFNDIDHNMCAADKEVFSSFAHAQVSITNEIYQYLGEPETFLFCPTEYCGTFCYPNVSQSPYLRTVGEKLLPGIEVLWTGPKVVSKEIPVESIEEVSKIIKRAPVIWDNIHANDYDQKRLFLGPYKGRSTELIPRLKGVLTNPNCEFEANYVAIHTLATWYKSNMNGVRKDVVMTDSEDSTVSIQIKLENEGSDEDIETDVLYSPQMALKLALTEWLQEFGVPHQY has what recorded glycan array binding signal (z-score)?
-0.058
